species on record: Bos taurus; assay: Induction of bovine brain tubulin alpha polymerization assessed as alpha tubulin expression by measuring pellet/supernatant and pellet fraction level at 3 uM after 1 hr by immunoblot method (reference value: 10.4%)
VALUE_KIND: Activity (%)
Report the figure in % without appending any unit label.

Take a look at these entries with their results.
{"COMPOUND": "C=C/C=C\\[C@H](C)[C@H](OC(=O)NCCCNC(=O)c1ccc(N=[N+]=[N-])cc1)[C@@H](C)[C@H](O)[C@@H](C)C/C(C)=C\\[C@H](C)[C@@H](O)[C@@H](C)/C=C\\[C@@H](O)C[C@@H]1OC(=O)[C@H](C)[C@@H](O)[C@H]1C", "Activity, %": 64.2}
{"COMPOUND": "C=C/C=C\\[C@H](C)[C@H](OC(N)=O)[C@@H](C)[C@H](O)[C@@H](C)C/C(C)=C\\[C@H](C)[C@@H](O)[C@@H](C)/C=C\\[C@@H](O)C[C@@H]1OC(=O)[C@H](C)[C@@H](O)[C@H]1C [DISERMOLIDE]", "Activity, %": 59.3}
{"COMPOUND": "CC(=O)O[C@H]1C(=O)[C@@]2(C)[C@H]([C@H](OC(=O)c3ccccc3)[C@]3(O)C[C@H](OC(=O)[C@H](O)[C@@H](NC(=O)c4ccccc4)c4ccccc4)C(C)=C1C3(C)C)[C@]1(OC(C)=O)CO[C@@H]1C[C@@H]2O", "Activity, %": 15.8}
{"COMPOUND": "C=C/C=C\\[C@H](C)[C@H](OC(=O)NCCCNC(=O)c1ccc(C2(C(F)(F)F)N=N2)cc1)[C@@H](C)[C@H](O)[C@@H](C)C/C(C)=C\\[C@H](C)[C@@H](O)[C@@H](C)/C=C\\[C@@H](O)C[C@@H]1OC(=O)[C@H](C)[C@@H](O)[C@H]1C", "Activity, %": 56.1}
{"COMPOUND": "C=C/C=C\\[C@H](C)[C@H](OC(=O)NCCNC(=O)c1ccc(N=[N+]=[N-])cc1)[C@@H](C)[C@H](O)[C@@H](C)C/C(C)=C\\[C@H](C)[C@@H](O)[C@@H](C)/C=C\\[C@@H](O)C[C@@H]1OC(=O)[C@H](C)[C@@H](O)[C@H]1C", "Activity, %": 54.6}
{"COMPOUND": "C=C/C=C\\[C@H](C)[C@H](OC(=O)NCCCCNC(=O)c1ccc(N=[N+]=[N-])cc1)[C@@H](C)[C@H](O)[C@@H](C)C/C(C)=C\\[C@H](C)[C@@H](O)[C@@H](C)/C=C\\[C@@H](O)C[C@@H]1OC(=O)[C@H](C)[C@@H](O)[C@H]1C", "Activity, %": 52.2}

# context switch: different compound, same Activity
Request: Reported Activity, compound "C=C/C=C\[C@H](C)[C@H](OC(=O)NCCCNC(=O)c1cccc(N=[N+]=[N-])c1)[C@@H](C)[C@H](O)[C@@H](C)C/C(C)=C\[C@H](C)[C@@H](O)[C@@H](C)/C=C\[C@@H](O)C[C@@H]1OC(=O)[C@H](C)[C@@H](O)[C@H]1C" : ____
Response: 60

----------
test system: MDA-MB-468; assay: Induction of senescence in human MDA-MB-468 cells assessed as increase in CXCL1 mRNA expression level at EC80 concentration after 6 days by qRT-PCR analysis; type: functional, cell-based
The source made the active and inactive calls. The calls are words filed in the database; no cut-off is given here.
VALUE_KIND: Activity

{"COMPOUND": "C=C/C=C\\[C@H](C)[C@H](OC(N)=O)[C@@H](C)[C@H](O)[C@@H](C)C/C(C)=C\\[C@H](C)[C@@H](O)[C@@H](C)/C=C\\[C@@H](O)C[C@@H]1OC(=O)[C@H](C)[C@@H](O)[C@H]1C [DISERMOLIDE]", "ASSAYED_TARGET": "MDA-MB-468", "ASSAY_RESULT": "Active"}
{"COMPOUND": "C=C/C=C\\[C@H](C)[C@H](OC(=O)NCCCNC(=O)c1ccc(C2(C(F)(F)F)N=N2)cc1)[C@@H](C)[C@H](O)[C@@H](C)C/C(C)=C\\[C@H](C)[C@@H](O)[C@@H](C)/C=C\\[C@@H](O)C[C@@H]1OC(=O)[C@H](C)[C@@H](O)[C@H]1C", "ASSAYED_TARGET": "MDA-MB-468", "ASSAY_RESULT": "Active"}
{"COMPOUND": "C=C/C=C\\[C@H](C)[C@H](OC(=O)NCCCNC(=O)c1ccc(N=[N+]=[N-])cc1)[C@@H](C)[C@H](O)[C@@H](C)C/C(C)=C\\[C@H](C)[C@@H](O)[C@@H](C)/C=C\\[C@@H](O)C[C@@H]1OC(=O)[C@H](C)[C@@H](O)[C@H]1C", "ASSAYED_TARGET": "MDA-MB-468", "ASSAY_RESULT": "Active"}
{"COMPOUND": "C=C/C=C\\[C@H](C)[C@H](OC(=O)NCCCNC(=O)c1cccc(N=[N+]=[N-])c1)[C@@H](C)[C@H](O)[C@@H](C)C/C(C)=C\\[C@H](C)[C@@H](O)[C@@H](C)/C=C\\[C@@H](O)C[C@@H]1OC(=O)[C@H](C)[C@@H](O)[C@H]1C", "ASSAYED_TARGET": "MDA-MB-468", "ASSAY_RESULT": "Active"}
